System: SR
Experimental protocol: NCI DTP human tumor cell line screen (SRB)
Assay type: cell-based
Condition info: Leukemia, 10 μM, 48 h
Procedure: Representative compounds of the invention, prepared as described in EXAMPLES 1-6, were submitted to the Developmental Therapeutics Program of the United States National Cancer Institute (NCl) to screen for anti-cancer activity. […] Bound stain was subsequently solubilized with 10 mM trizma base, and the absorbance was read on an automated plate reader at a wavelength of 515 nm. […]
Growth Percent values, listed per item
Entry rule: numbers only, all in %.

compound="CC1CCC2C(C)C(OCc3ccc(C(=O)NN=Cc4ccccc4)cc3)OC3OC4(C)CCC1C32OO4 (stereo not drawn)" unit_symbol=% reported_value=−24.04

Form: compound = Cc1ncc(CO)c(C=NNC(=O)c2ccc(COC3OC4OC5(C)CCC6C(C)CCC(C3C)C46OO5)cc2)c1O (stereo not drawn) ; Growth Percent = −29.75

---

Test system: COLO 205
Experimental protocol: NCI DTP human tumor cell line screen (SRB)
Format: cell-based
Condition info: Colon Cancer, 10 μM, 48 h
Measured Growth Percent accompanies every entry in the list below.
Please reply with the bare figure in % and do not write the unit itself.

For orientation, consider the following solved cases.
compound="CC1CCC2C(C)C(OCCn3cc(C(=O)NN=Cc4ccccc4O)nn3)OC3OC4(C)CCC1C32OO4 (stereo not drawn)" measured_attribute="Growth Percent" reported_value=26.05
compound="CC1CCC2C(C)C(OCc3ccc(C(=O)NN=Cc4ccccc4)cc3)OC3OC4(C)CCC1C32OO4 (stereo not drawn)" measured_attribute="Growth Percent" reported_value=17.72
compound="CC1CCC2C(C)C(OCc3ccc(C(=O)NN=Cc4ccccc4O)cc3)OC3OC4(C)CCC1C32OO4 (stereo not drawn)" measured_attribute="Growth Percent" reported_value=26.59

Record Cc1ncc(CO)c(C=NNC(=O)c2ccc(COC3OC4OC5(C)CCC6C(C)CCC(C3C)C46OO5)cc2)c1O (stereo not drawn) , field Growth Percent: −4.40

# Growth Percent (compound: CC1CCC2C(C)C(OCc3ccc(C(=O)NN=Cc4ccccc4O)o3)OC3OC4(C)CCC1C32OO4 (stereo not drawn) ) is 18.60

Entry under test: CC1CCC2C(C)C(OCc3ccc(C(=O)NN=Cc4ccccc4O)nc3)OC3OC4(C)CCC1C32OO4 (stereo not drawn) . Its Growth Percent was 30.63

---

System: OVCAR-5
Experimental protocol: NCI DTP human tumor cell line screen (SRB)
Assay type: cell-based
Condition info: Ovarian Cancer, 10 μM, 48 h
Assign class by Growth Percent: not lower than 40% means condition met; lower than 40% means condition not met.

Reference set, count: 3
molecule="Cc1ncc(CO)c(C=NNC(=O)c2ccc(COC3OC4OC5(C)CCC6C(C)CCC(C3C)C46OO5)cc2)c1O (stereo not drawn) [ART-Phe-Pyridoxal]" assigned_class="condition met"
molecule="CC1CCC2C(C)C(OCCn3cc(C(=O)NN=Cc4ccccc4O)nn3)OC3OC4(C)CCC1C32OO4 (stereo not drawn) [ART-Triazole-Sal]" assigned_class="condition met"
molecule="CC1CCC2C(C)C(OCc3ccc(C(=O)NN=Cc4ccccc4O)nc3)OC3OC4(C)CCC1C32OO4 (stereo not drawn) [ART-Pyr-Sal]" assigned_class="condition met"

Query: hey, is Growth Percent for this one >= 40%? CC1CCC2C(C)C(OCc3ccc(C(=O)NN=Cc4ccccc4O)cc3)OC3OC4(C)CCC1C32OO4 (stereo not drawn) [ART-Phe-Sal]
Result: condition met

Query: Identify whether the reported Growth Percent of the following molecule is 40% or greater: CC1CCC2C(C)C(OCc3ccc(C(=O)NN=Cc4ccccc4)cc3)OC3OC4(C)CCC1C32OO4 (stereo not drawn) [ART-Phe-Bz]
Result: condition not met

Query: Please check the record CC1CCC2C(C)C(OCc3ccc(C(=O)NN=Cc4ccccc4O)o3)OC3OC4(C)CCC1C32OO4 (stereo not drawn) [ART-Furan-Sal] and state if its Growth Percent is at or above 40%.
Result: condition not met

---

Tested on: 786-0
Experimental protocol: NCI DTP human tumor cell line screen (SRB)
Format: cell-based
Condition info: Renal Cancer, 10 μM, 48 h
Method: Representative compounds of the invention, prepared as described in EXAMPLES 1-6, were submitted to the Developmental Therapeutics Program of the United States National Cancer Institute (NCl) to screen for anti-cancer activity. […] Bound stain was subsequently solubilized with 10 mM trizma base, and the absorbance was read on an automated plate reader at a wavelength of 515 nm. […]
Param label: returns TRUE when Growth Percent < -10%, returns FALSE otherwise, including exact equality.

Some solved cases for reference:
compound="CC1CCC2C(C)C(OCc3ccc(C(=O)NN=Cc4ccccc4)cc3)OC3OC4(C)CCC1C32OO4 (stereo not drawn)" assigned_class=FALSE
compound="CC1CCC2C(C)C(OCCn3cc(C(=O)NN=Cc4ccccc4O)nn3)OC3OC4(C)CCC1C32OO4 (stereo not drawn)" assigned_class=FALSE
compound="Cc1ncc(CO)c(C=NNC(=O)c2ccc(COC3OC4OC5(C)CCC6C(C)CCC(C3C)C46OO5)cc2)c1O (stereo not drawn)" assigned_class=TRUE
compound="CC1CCC2C(C)C(OCc3ccc(C(=O)NN=Cc4ccccc4O)o3)OC3OC4(C)CCC1C32OO4 (stereo not drawn)" assigned_class=TRUE
compound="CC1CCC2C(C)C(OCc3ccc(C(=O)NN=Cc4ccccc4O)cc3)OC3OC4(C)CCC1C32OO4 (stereo not drawn)" assigned_class=TRUE

Attention now turns to another entry.
Query: Consider the compound CC1CCC2C(C)C(OCc3ccc(C(=O)NN=Cc4ccccc4O)nc3)OC3OC4(C)CCC1C32OO4 (stereo not drawn) . Is its Growth Percent strictly less than -10%?
Result: TRUE

---

Test system: A498
Experimental protocol: NCI DTP human tumor cell line screen (SRB)
Assay type: cell-based
Condition info: Renal Cancer, 10 μM, 48 h
Measured attribute: Growth Percent (%)
Numeric answer only, unit % assumed.

compound="CC1CCC2C(C)C(OCc3ccc(C(=O)NN=Cc4ccccc4O)nc3)OC3OC4(C)CCC1C32OO4 (stereo not drawn) [ART-Pyr-Sal]" system_tested=A498 reported_value=5.27
compound="CC1CCC2C(C)C(OCc3ccc(C(=O)NN=Cc4ccccc4O)o3)OC3OC4(C)CCC1C32OO4 (stereo not drawn) [ART-Furan-Sal]" system_tested=A498 reported_value=12.88
compound="CC1CCC2C(C)C(OCc3ccc(C(=O)NN=Cc4ccccc4O)cc3)OC3OC4(C)CCC1C32OO4 (stereo not drawn) [ART-Phe-Sal]" system_tested=A498 reported_value=0.33
compound="CC1CCC2C(C)C(OCCn3cc(C(=O)NN=Cc4ccccc4O)nn3)OC3OC4(C)CCC1C32OO4 (stereo not drawn) [ART-Triazole-Sal]" system_tested=A498 reported_value=50.94
compound="Cc1ncc(CO)c(C=NNC(=O)c2ccc(COC3OC4OC5(C)CCC6C(C)CCC(C3C)C46OO5)cc2)c1O (stereo not drawn) [ART-Phe-Pyridoxal]" system_tested=A498 reported_value=−36.78

Please find the next compound below.
Summary for this compound, CC1CCC2C(C)C(OCc3ccc(C(=O)NN=Cc4ccccc4)cc3)OC3OC4(C)CCC1C32OO4 (stereo not drawn) [ART-Phe-Bz] : Growth Percent is 30.47

---

Tested on: MOLT-4
Experimental protocol: NCI DTP human tumor cell line screen (SRB)
Format: cell-based
Condition info: Leukemia, 10 μM, 48 h
Items are presented alongside their recorded Growth Percent.
Answer in %, number only, no unit symbol.

Form: compound = CC1CCC2C(C)C(OCc3ccc(C(=O)NN=Cc4ccccc4O)nc3)OC3OC4(C)CCC1C32OO4 (stereo not drawn) ; Growth Percent = 10.13

Lab book: Growth Percent of Cc1ncc(CO)c(C=NNC(=O)c2ccc(COC3OC4OC5(C)CCC6C(C)CCC(C3C)C46OO5)cc2)c1O (stereo not drawn) noted as −25.71

For CC1CCC2C(C)C(OCc3ccc(C(=O)NN=Cc4ccccc4O)cc3)OC3OC4(C)CCC1C32OO4 (stereo not drawn) the compound record lists Growth Percent as −30.65

Entry CC1CCC2C(C)C(OCCn3cc(C(=O)NN=Cc4ccccc4O)nn3)OC3OC4(C)CCC1C32OO4 (stereo not drawn) — recorded Growth Percent = −0.29

Growth Percent reading for CC1CCC2C(C)C(OCc3ccc(C(=O)NN=Cc4ccccc4O)o3)OC3OC4(C)CCC1C32OO4 (stereo not drawn) : −23.49

In plain terms, CC1CCC2C(C)C(OCc3ccc(C(=O)NN=Cc4ccccc4)cc3)OC3OC4(C)CCC1C32OO4 (stereo not drawn) has a documented Growth Percent of −25.73

---

Tested on: HCC-2998
Experimental protocol: NCI DTP human tumor cell line screen (SRB)
Assay type: cell-based
Condition info: Colon Cancer, 10 μM, 48 h
Method: Representative compounds of the invention, prepared as described in EXAMPLES 1-6, were submitted to the Developmental Therapeutics Program of the United States National Cancer Institute (NCl) to screen for anti-cancer activity. […] Bound stain was subsequently solubilized with 10 mM trizma base, and the absorbance was read on an automated plate reader at a wavelength of 515 nm. […]
If the reported Growth Percent equals or exceeds 20%, assign 1. If not, assign 0.

Previously resolved entries follow.
compound="Cc1ncc(CO)c(C=NNC(=O)c2ccc(COC3OC4OC5(C)CCC6C(C)CCC(C3C)C46OO5)cc2)c1O (stereo not drawn)" assigned_class=1
compound="CC1CCC2C(C)C(OCc3ccc(C(=O)NN=Cc4ccccc4)cc3)OC3OC4(C)CCC1C32OO4 (stereo not drawn)" assigned_class=1
compound="CC1CCC2C(C)C(OCCn3cc(C(=O)NN=Cc4ccccc4O)nn3)OC3OC4(C)CCC1C32OO4 (stereo not drawn)" assigned_class=1
compound="CC1CCC2C(C)C(OCc3ccc(C(=O)NN=Cc4ccccc4O)cc3)OC3OC4(C)CCC1C32OO4 (stereo not drawn)" assigned_class=1

Query: Does Growth Percent meet or surpass 20% for CC1CCC2C(C)C(OCc3ccc(C(=O)NN=Cc4ccccc4O)o3)OC3OC4(C)CCC1C32OO4 (stereo not drawn) ?
Result: 0

Query: Is Growth Percent for CC1CCC2C(C)C(OCc3ccc(C(=O)NN=Cc4ccccc4O)nc3)OC3OC4(C)CCC1C32OO4 (stereo not drawn) at or above 20%?
Result: 0
